- ASSAY_NOTES: Plasma pharmacokinetics of iptacopan
- Format: in vivo, human
- EXPERIMENTAL_PARAMETERS: human, plasma, oral, 200 mg
OBSERVATION_TYPE: AUC(0-t) (ng·h/mL)
Provide only the numeric value, understood in ng·h/mL.

The value of AUC(0-t) measured for the compound `CCO[C@H]1CCN(Cc2c(OC)cc(C)c3[nH]ccc23)[C@H](c2ccc(C(=O)O)cc2)C1` turned out to be 19900

* * *

- ASSAY_NOTES: Plasma pharmacokinetics of iptacopan
- Format: in vivo, human
- EXPERIMENTAL_PARAMETERS: human, plasma, oral, 200 mg
OBSERVATION_TYPE: Cmax (ng/mL)
Number only, in ng/mL; omit the unit.

# molecule CCO[C@H]1CCN(Cc2c(OC)cc(C)c3[nH]ccc23)[C@H](c2ccc(C(=O)O)cc2)C1 [Iptacopan] ; its Cmax = 4520
